Catalogue of sequences with associated apparent KD of MS2 coat protein
tested on: MS2 coat protein; assay: apparent KD of MS2 coat protein; designed switch direction (-1 OFF switch, 1 ON switch): -1; higher = weaker reporter binding; conditions: input ligand: FMN 200 uM
Respond numerically; units are nM and should not be typed.

- macromolecule.sequence: "CUCCGGCGUGUAGGAUAUGGUUCCGUUUAGGAUCCAGAAGGACAUGAGGAUCACCCAUGUACAUGUCGUCGGUCGUCACCGGGC [salish99_ExNG1_r04_212] (Eterna round: R96, puzzle: Exclusion NG 1)"
  apparent KD of MS2 coat protein, nM: 110
- macromolecule.sequence: "GUUUUGGGAGGAUAUAUGUGGAUAAUUUUUAUAUGAAAUUUACAUGAGGAUCACCCAUGUAGAAGGUCUAGAGC [-18.5, -15.1 kcal, 31% A] (Eterna round: R97, puzzle: Exclusion 2)"
  apparent KD of MS2 coat protein, nM: 476
- macromolecule.sequence: "UGUUGUCGCGUAGGAUAUGAGGAUCACCCAUAGAAGGAUAUCGAAAGAGAAGGUCUGAGGAUUACCCAGAAGGACGGGACAACU [pwkr exNG2 2xF5 2xFMN.14] (Eterna round: R96, puzzle: Exclusion NG 2)"
  apparent KD of MS2 coat protein, nM: 682

Okay, now this sequence:
Problem: I would be grateful if you could share the reported apparent KD of MS2 coat protein for AAAUCUCACGUGAGGAUAUCCUGGGCAACGUCCACGGAGAAGGCACAUGAGGAUCACCCAUGUGUUCGCAAUAC [Brourd's mod of Exclusion 4 (MOD2 of Nando's BmEX4 C.1)] (Eterna round: R97, puzzle: Brourd's mod of Exclusion 4) .
Solution: 22.3

====

tested on: MS2 coat protein; assay: apparent KD of MS2 coat protein; designed switch direction (-1 OFF switch, 1 ON switch): 1; higher = weaker reporter binding; conditions: input ligand: none
Below: a set of entries, each annotated with reported apparent KD of MS2 coat protein.

Worked cases, apparent KD of MS2 coat protein given:
- macromolecule.sequence: "CGUAGGAUAUGCAGAGGAUCACCCUGUAGAAGGACGAUUACGUAGGAUAUGCAGAGGAUCACCCUGUAGAAGGACGACUAAUCU [pwkr ssNG3 DX 2xF5 +2xFMN.2] (Eterna round: R96, puzzle: Same State NG 3)"
  apparent KD of MS2 coat protein: "129 nM"
- macromolecule.sequence: "GUAACAUGACGAGGAUAUGGUACAUGAGGAUCACCCAUGUAUGUACCACGACGCGUACGUCGAAUCCAGAAGGCGUCGUGAAUG [Mat - Same State NG 2 - JL mod - D21] (Eterna round: R96, puzzle: Same State NG 2)"
  apparent KD of MS2 coat protein: "70.1 nM"

Problem: Which apparent KD of MS2 coat protein reading was recorded for the sequence CCGUCGGAGGUAGGAUAUGGAGCCUUAUUGGCUCCAGAAGGAUCAAAUAAAUUAACAAACAUGAGGAUCACCCAUGUCCGACGG [Eli NG1ss - 86] (Eterna round: R96, puzzle: Same State NG 1) ?
Solution: 558 nM

Problem: Same question, CUUUUUAAUGCAGGAUAUGAUCAACAUGAGGAUCACCCAUGUGGUGUUGUGAGUAAGGAGAGUGAUCAGAAGGGCAUCUCCUCA [SS-NG2-LRO06] (Eterna round: R96, puzzle: Same State NG 2) this time
Solution: 83.6 nM
